Each recorded value in this set is attributed to ChEMBL document CHEMBL1154214.

Test system: SK-OV-3
assay.remarks: Cytotoxicity against human SKOV3 cells after 48 hrs by Neutral red assay
Assay type: functional, cell-based
applied.conditions: sk-ov-3
experimental.endpoint: IC50

Worked cases, answers included:
compound	value.reported
CC(=O)O[C@@H]1C[C@@H]2[C@@]3(C)CCCC(C)(C)[C@@H]3CC[C@@]2(C)[C@@H]2CC=C3C(=O)O[C@@H](O)[C@@H]3[C@@]12C	Not Active
CC1(C)CCC[C@]2(C)[C@H]3C[C@@H](O)[C@]4(C)C(CO)C(CO)=CC[C@H]4[C@]3(C)CC[C@@H]12 (stereo partly specified)	Not Active
CO[C@@H]1O[C@@H](OC)[C@H]2C1=CC[C@H]1[C@]3(C)CC[C@H]4C(C)(C)CCC[C@]4(C)[C@H]3C[C@@H](O)[C@]21C	Not Active
CO[C@@H]1C[C@H]2[C@]3(C)CC[C@H]4C(C)(C)CCC[C@]4(C)[C@H]3C[C@@H](O)[C@]2(C)c2cocc21 [16-O-METHYLSESTERSTATIN 4]	Not Active
CC(=O)O[C@H]1C[C@H]2[C@]3(C)CC[C@H]4C(C)(C)CCC[C@]4(C)[C@H]3C[C@@H](O)[C@]2(C)c2cocc21 [SCALARAFURAN]	Not Active

Continue with the compound presented below.
Input: Endpoint output: IC50 of CC1(C)CCC[C@]2(C)[C@H]3C[C@@H](O)[C@]4(C)c5cocc5[C@@H](O)C[C@H]4[C@]3(C)CC[C@@H]12 [SESTERSTATIN 5] . Value?
Output: Not Active

* * *

System: SK-OV-3
assay.remarks: Cytotoxicity against human SKOV3 cells after 48 hrs by Neutral red assay
Assay type: functional, cell-based
applied.conditions: sk-ov-3
experimental.endpoint: IC50

smiles.entry	measured.target	value.reported
CC1(C)CCC[C@]2(C)[C@H]3C[C@@H](O)[C@]4(C)[C@H]5COC(=O)C5=CC[C@H]4[C@]3(C)CC[C@@H]12	SK-OV-3	Not Active
CC1(C)CCC[C@]2(C)[C@H]3C[C@@H](O)[C@]4(C)c5cocc5C=C[C@H]4[C@]3(C)CC[C@@H]12	SK-OV-3	Not Active
CO[C@H]1O[C@@H](OC)[C@H]2C1=CC[C@H]1[C@]3(C)CC[C@H]4C(C)(C)CCC[C@]4(C)[C@H]3C[C@@H](O)[C@]21C	SK-OV-3	Not Active
